target: human delta receptor (Homo sapiens, UniProt P41143); construct: 6110549; experiment: radioligand binding, human delta receptor, HEK-293 cell membranes; details: cell not marked (rat), species not given, read-out: δ
Sequence (P41143 whole entry): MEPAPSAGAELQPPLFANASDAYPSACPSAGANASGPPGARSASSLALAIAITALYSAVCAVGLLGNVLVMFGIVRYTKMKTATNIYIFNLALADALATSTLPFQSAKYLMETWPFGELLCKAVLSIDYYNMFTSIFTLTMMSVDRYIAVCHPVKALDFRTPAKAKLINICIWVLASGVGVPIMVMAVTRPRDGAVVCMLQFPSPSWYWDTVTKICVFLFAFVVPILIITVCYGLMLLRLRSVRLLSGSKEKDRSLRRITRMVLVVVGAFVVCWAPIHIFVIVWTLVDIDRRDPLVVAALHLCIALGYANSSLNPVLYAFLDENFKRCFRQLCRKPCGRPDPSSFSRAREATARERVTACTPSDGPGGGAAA
Ki values by entry
// note: answer is a bare numeric in pM

Previously resolved entries follow.
CCOC(=O)CN1CCCN(C(=O)c2cccc(C(c3cccc(O)c3)N3C[C@@H](C)N(Cc4ccccc4)C[C@@H]3C)c2)CC1 (stereo partly drawn) ... 210
CCOC(=O)CN1CCN(C(=O)c2cccc([C@H](c3cccc(O)c3)N3C[C@@H](C)N(Cc4ccccc4)C[C@@H]3C)c2)CC1 ... 730

Next item in the queue.
Prompt line: So what does the record say about Ki for `C=CCN1C[C@H](C)N([C@@H](c2cccc(O)c2)c2cccc(C(=O)N3CCC[C@H]3C(=O)OC)c2)C[C@H]1C` ?
Response line: 1500

###

tested on: seizure-like convulsions in mice; experiment: mouse seizure-like convulsions; assay type: in vivo; conditions: 10 mg/kg IV
assayMetric: Seiz. (% 10 mg/kg IV)
Numeric only. Scale: % 10 mg/kg IV

Consider the following illustrative entries.
C=CCN1C[C@H](C)N([C@@H](c2cccc(O)c2)c2cccc(C(=O)N3CCN(CCCCCCC(=O)O)CC3)c2)C[C@H]1C [Example 109] ... 0
C=CCN1C[C@H](C)N([C@@H](c2cccc(O)c2)c2cccc(C(=O)N3CCN(CCC(=O)O)CC3)c2)C[C@H]1C [Example 73] ... 0
CCOC(=O)CN1CCN(C(=O)c2cccc([C@H](c3cccc(O)c3)N3C[C@@H](C)N(Cc4ccccc4)C[C@@H]3C)c2)CC1 [Example 68] ... 80
C=CCN1C[C@H](C)N([C@@H](c2cccc(O)c2)c2cccc(C(=O)N3CCN(Cc4ccc(C(=O)OC)cc4)CC3)c2)C[C@H]1C [Example 91] ... 70

Okay, next one:
Prompt line: Reported Seiz. for C[C@@H]1CN([C@@H](c2cccc(O)c2)c2cccc(C(=O)N3CCN(CC(=O)O)CC3)c2)[C@@H](C)CN1Cc1ccccc1 [Example 69] : what is it?
Response line: 0

###

biological target: human mu opioid receptor (Homo sapiens, UniProt P35372)
Sequence (P35372 whole entry): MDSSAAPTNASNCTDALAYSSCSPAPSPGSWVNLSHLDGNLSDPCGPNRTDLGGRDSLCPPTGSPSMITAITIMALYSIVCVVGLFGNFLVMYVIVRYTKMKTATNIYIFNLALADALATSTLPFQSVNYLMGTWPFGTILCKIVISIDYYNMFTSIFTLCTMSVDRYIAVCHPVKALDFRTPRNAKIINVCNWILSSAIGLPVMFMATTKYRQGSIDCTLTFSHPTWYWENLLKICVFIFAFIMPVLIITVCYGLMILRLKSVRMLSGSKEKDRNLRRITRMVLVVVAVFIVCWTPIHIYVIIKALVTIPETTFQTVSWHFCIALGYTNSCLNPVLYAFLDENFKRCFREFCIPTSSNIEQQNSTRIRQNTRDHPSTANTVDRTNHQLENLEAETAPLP
assayMetric: pKi
A value of pKi is the negative decimal logarithm of a concentration given in moles per litre.

Here's what some known entries look like.
COCCN1C[C@H](C)N([C@@H](c2cccc(O)c2)c2cccc(C(=O)N3CCN(Cc4ccc(C(=O)O)cc4)CC3)c2)C[C@H]1C ... 7.05
CCOC(=O)C1CCN(C(=O)c2cccc([C@H](c3cccc(O)c3)N3C[C@@H](C)N(Cc4cccc(F)c4)C[C@@H]3C)c2)CC1 ... 8.46
CCOC(=O)N1CCN(C(=O)c2cccc([C@H](c3cccc(O)c3)N3C[C@@H](C)N(Cc4cccc(F)c4)C[C@@H]3C)c2)CC1 ... 8.01
CCOC(=O)CN1CCCN(C(=O)c2cccc(C(c3cccc(O)c3)N3C[C@@H](C)N(Cc4ccccc4)C[C@@H]3C)c2)CC1 (stereo partly shown) ... 9.25
C=CCN1C[C@H](C)N([C@@H](c2cccc(O)c2)c2cccc(C(=O)N3CCN(CCC(=O)O)CC3)c2)C[C@H]1C ... 7.77

Prompt line: Entry `CCOC(=O)CN1CCN(C(=O)c2cccc([C@H](c3cccc(O)c3)N3C[C@@H](C)N(CC4CC4)C[C@@H]3C)c2)CC1` , system human mu opioid receptor (Homo sapiens, UniProt P35372): what pKi was measured?
Response line: 8.06

Prompt line: What pKi appears in the records for this molecule with human mu opioid receptor (Homo sapiens, UniProt P35372)? `C=CCN1C[C@H](C)N([C@@H](c2cccc(O)c2)c2cccc(C(=O)N3CCC(NCCCC(=O)O)CC3)c2)C[C@H]1C`
Response line: 8.06

Prompt line: Which pKi is reported with human mu opioid receptor (Homo sapiens, UniProt P35372) for this entry: CCOC(=O)CCCCCN1CCCN(C(=O)c2cccc(C(c3cccc(O)c3)N3C[C@@H](C)N(Cc4cccc(F)c4)C[C@@H]3C)c2)CC1 (stereo partly shown) ?
Response line: 7.23

Prompt line: Form field: pKi recorded for `C=CCN1C[C@H](C)N([C@@H](c2cccc(O)c2)c2cccc(C(=O)N3CCNCC3)c2)C[C@H]1C` with human mu opioid receptor (Homo sapiens, UniProt P35372) (enter value)
Response line: 8.96

Prompt line: Look up pKi with human mu opioid receptor (Homo sapiens, UniProt P35372) for this molecule: `CCOC(=O)CCCCCN1CCN(C(=O)c2cccc([C@H](c3cccc(O)c3)N3C[C@@H](C)N(Cc4cccc(F)c4)C[C@@H]3C)c2)CC1`
Response line: 8.07

Prompt line: Hello, I am looking for reported pKi with human mu opioid receptor (Homo sapiens, UniProt P35372) for `C=CCN1C[C@H](C)N([C@@H](c2cccc(O)c2)c2cccc(C(=O)N3CCN(Cc4cccc5c4ccn5CC(=O)O)CC3)c2)C[C@H]1C` . Could you help?
Response line: 8.19

Prompt line: What pKi appears in the records for this molecule with human mu opioid receptor (Homo sapiens, UniProt P35372)? `C=CCN1C[C@H](C)N([C@@H](c2cccc(O)c2)c2cccc(C(=O)N3CCC(C(=O)O)CC3)c2)C[C@H]1C`
Response line: 8.39

Prompt line: Value wanted: pKi (human mu opioid receptor (Homo sapiens, UniProt P35372)) of entry `C=CCN1C[C@H](C)N([C@@H](c2cccc(O)c2)c2cccc(C(=O)N(C)CC(=O)OCC)c2)C[C@H]1C`
Response line: 9.30

Prompt line: Short answer please: pKi, human mu opioid receptor (Homo sapiens, UniProt P35372), entry `C=CCN1C[C@H](C)N([C@@H](c2cccc(O)c2)c2cccc(C(=O)N3CCN(CCCCCC(=O)OCC)CC3)c2)C[C@H]1C`
Response line: 7.52

Prompt line: Provide value of pKi for this record tested with human mu opioid receptor (Homo sapiens, UniProt P35372): `CCOC(=O)CCCN1CCN(C(=O)c2cccc([C@H](c3cccc(O)c3)N3C[C@@H](C)N(Cc4cccc(F)c4)C[C@@H]3C)c2)CC1`
Response line: 8.31

###

# Ki per entry for UniProt:P35372
Expressed in nM, but write only the number.

Past entries and their recorded results:
C[C@@H]1CN(C(c2cccc(O)c2)c2cccc(C(=O)N3CCCN(CC(=O)O)CC3)c2)[C@@H](C)CN1Cc1ccccc1 (stereo partly drawn) ... 1.27
C[C@@H]1CN(C(c2cccc(O)c2)c2cccc(C(=O)N3CCCN(CCCC(=O)O)CC3)c2)[C@@H](C)CN1Cc1ccccc1 (stereo partly drawn) ... 1.9
C=CCN1C[C@H](C)N(C(c2cccc(O)c2)c2cccc(C(=O)N3CCCN(Cc4ccc(C(=O)O)cc4)CC3)c2)C[C@H]1C (stereo partly drawn) ... 4

Prompt line: Form field: reported Ki of CCOC(=O)CCCCCN1CCN(C(=O)c2cccc([C@H](c3cccc(O)c3)N3C[C@@H](C)N(Cc4ccccc4)C[C@@H]3C)c2)CC1 [Example 96]
Response line: 2

Prompt line: Could you share which Ki value was measured for C[C@@H]1CN(C(c2cccc(O)c2)c2cccc(C(=O)N3CCCN(CC(=O)O)CC3)c2)[C@@H](C)CN1Cc1cccc(F)c1 (stereo partly drawn) ?
Response line: 3.1

Prompt line: Using the record for C[C@@H]1CN([C@@H](c2cccc(O)c2)c2cccc(C(=O)N3CCN(CCCCCCC(=O)O)CC3)c2)[C@@H](C)CN1Cc1ccccc1 [Example 111] , report its Ki.
Response line: 8.7

Prompt line: If you can, please state the reported Ki value of CCOC(=O)CN1CCN(C(=O)c2cccc([C@H](c3cccc(O)c3)N3C[C@@H](C)N(Cc4ccccc4)C[C@@H]3C)c2)CC1 [Example 68] .
Response line: 1.22

###

system: seizure-like convulsions in mice; experiment: mouse seizure-like convulsions; type: in vivo; conditions: 10 mg/kg IV
Reported Seiz. by item:
The reply should be a number in % 10 mg/kg IV, with the unit left off.

C=CCN1C[C@H](C)N(C(c2cccc(O)c2)c2cccc(C(=O)N3CCCN(Cc4ccc(C(=O)O)cc4)CC3)c2)C[C@H]1C (stereo partly shown) ... 0
C=CCN1C[C@H](C)N(C(c2cccc(O)c2)c2cccc(C(=O)N3CCCN(Cc4cccc(C(=O)O)c4)CC3)c2)C[C@H]1C (stereo partly shown) ... 0

Turning to the following compound.
Prompt line: Please report the recorded Seiz. for CCOC(=O)N1CCN(C(=O)c2cccc([C@H](c3cccc(O)c3)N3C[C@@H](C)N(Cc4ccccc4)C[C@@H]3C)c2)CC1 [Example 62] .
Response line: 70

###

tested on: seizure-like convulsions in mice; experiment: mouse seizure-like convulsions; format: in vivo; settings: 10 mg/kg IV
Collected Seiz. values appear next to each entry.
Write the number in % 10 mg/kg IV without appending the unit.

C=CCN1C[C@H](C)N(C(c2cccc(O)c2)c2cccc(C(=O)N3CCCNCC3)c2)C[C@H]1C (stereo partly drawn) ... 45

Prompt line: I am curious: what Seiz. value has been reported for `C=CCN1C[C@H](C)N([C@@H](c2cccc(O)c2)c2cccc(C(=O)N3CCC(=CC(=O)O)CC3)c2)C[C@H]1C` ?
Response line: 0

Prompt line: # query: Seiz. of entry `C[C@@H]1CN([C@@H](c2cccc(O)c2)c2cccc(C(=O)N3CCN(CCCCCC(=O)O)CC3)c2)[C@@H](C)CN1Cc1cccc(F)c1`
Response line: 0

Prompt line: Report Seiz. for `C=CCN1C[C@H](C)N([C@@H](c2cccc(O)c2)c2cccc(C(=O)N3CCNCC3)c2)C[C@H]1C` please.
Response line: 0

Prompt line: So what does the record say about Seiz. for `C=CCN1C[C@H](C)N([C@@H](c2cccc(O)c2)c2cccc(C(=O)N3CCN(CCCCCC(=O)O)CC3)c2)C[C@H]1C` ?
Response line: 0

Prompt line: Form field: reported Seiz. of `CCOC(=O)CCN1CCCN(C(=O)c2cccc([C@H](c3cccc(O)c3)N3C[C@@H](C)N(Cc4cccc(F)c4)C[C@@H]3C)c2)CC1`
Response line: 20

Reference source for all entries: patent US7683168B2
